# methodSummary: Antioxidative activity assessed as superoxide anion radical scavenging activity
# Type: physicochemical
metric: pIC50
Just the number, please; pIC50 means minus log10 of the concentration in mol/L.

Tell me the measured pIC50 of O=c1cc(-c2ccc(O)c(O)c2)oc2cc(O)cc(O)c12 , please.
4.65

* * *

# methodSummary: Antioxidative activity assessed as ABTS cation radical scavenging activity
# Assay type: physicochemical
metric: pIC50
pIC50 (log units): -log10 of the concentration in mol/L.

Param item = CC(C)=CCc1ccc2[nH]cc(C3=C(O)C(=O)C(O)(c4c[nH]c5ccc(CC=C(C)C)cc45)C(=O)C3=O)c2c1 (configuration not stated) ; retrieve measured pIC50.
4.34

Param item = O=C1O[C@H]([C@@H](O)CO)C(O)=C1O ; retrieve measured pIC50.
8.00
